Test system: HL-60(TB) leukemia
Experiment: NCI-60 one-dose screen, 48 h
Conditions: 10 µM unless noted
About 83,000 compounds went through this panel and 20% of them were active in at least one assay; those are over-represented in the sample as a whole. Active and inactive are the calls of the source. The calls were made as follows: active = growth percent below 10; inactive = the rest.
Can you answer with just one of these options? active, inactive

Request: // param item: COC1=C(c2ccccc2)C(=O)C(OC)=C(c2ccccc2)C1=O ; yields the recorded call
Response: active

Request: Recorded test outcome, item O=C(Nc1ccc(-c2nc(-c3cccc(O)c3)c(-c3ccnc(Br)c3)[nH]2)cc1)c1ccccc1
Response: active

Request: Record request — test call for COc1ccc(/C=N/Nc2ccnc3cc(Cl)ccc23)cc1Cl
Response: active

Request: Lab log entry: CCN1C(=S)N(c2ccccc2)C2NC(=O)N(/N=C/C=C/c3ccccc3OC)C21 (stereo not drawn) — outcome as called in the assay?
Response: inactive

Request: GET /call?item= CN1C(=O)[C@]23SSC1(C)C(=O)N2[C@H]1Nc2ccccc2C1([C@@]12c4ccccc4N[C@@H]1N1C(=O)C4(C)SS[C@]1(C(=O)N4C)[C@H]2O)[C@@H]3O (stereo partly drawn) returns the recorded outcome of this test.
Response: active

Request: // param item: CCNC(=O)N1CCc2cc(OC)c(OCCc3ccc(OC)cc3)cc2C1c1ccc(Cl)cc1C (stereo not drawn) ; yields the recorded call
Response: inactive

Request: // outcome(item) with item = O=C(CN1C(=O)CSC1=O)Nc1ccc(C(=O)/C=C/c2cc3ccccc3nc2Cl)cc1
Response: inactive

Request: Could you please tell me the result logged for CC(=O)Oc1ccccc1C(=O)Nc1ccc(C(=O)/C=C/c2ccncc2)cc1 in this assay?
Response: active

Request: Short answer needed: outcome of this test for Cc1ccc(-n2cc(/C=N/NC(=O)c3nc(N)n[nH]3)c(-c3ccc(S(C)(=O)=O)cc3)n2)cc1 ?
Response: inactive

Request: Which outcome was assigned to Cn1c(SCC(=O)c2ccco2)nc2ccccc2c1=O in this test?
Response: inactive

Request: GET /call?item= O=S(=O)(Oc1ccc(-c2cn3ccoc3n2)cc1)c1cccc(C(F)(F)F)c1 returns the recorded outcome of this test.
Response: inactive

Request: Please share the test call associated with Cc1ccc(C(=O)Nc2ccc(CNCCN3CCNCC3)c(C(F)(F)F)c2)cc1C#Cc1cnc2cccnn12 .
Response: active

Request: Tell me the assay call for CS(=O)(=O)c1ccc(-c2nc3ccccn3c2/C=N/Nc2nc(-c3ccc(Br)cc3)cs2)cc1 please.
Response: inactive

Request: Recorded test outcome, item COCCOc1ccc2ncc(C#Cc3cncc(C(=O)Nc4ccc(CN5CCN(C)CC5)c(C(F)(F)F)c4)c3)n2n1
Response: inactive

Request: GET /call?item= C=C(C=O)[C@@H]1CC[C@]2(C)[C@H](CC=C3[C@H]4[C@@H](C)[C@H](C)CC[C@]4(C(=O)OC)CC[C@]32C)[C@@]1(C)CCC#N returns the recorded outcome of this test.
Response: active

Request: Tell me the assay call for Cn1ncc2ncc(-c3ccc4ncc(C#N)c(N5CCc6cc(F)c(Cl)cc65)c4c3)cc21 please.
Response: inactive

Request: Hi, do you know how C#C[C@]1(O)CC[C@H]2[C@@H]3CC=C4c5sc(-c6cccc(O)c6)nc5CC[C@]4(C)[C@H]3CC[C@@]21C came out in this test?
Response: active

Request: Any idea what this test logged for O=C1Nc2cc(OC(F)(F)F)ccc2Oc2ccc(-c3ccnc(N4CCNCC4)c3)cc21 ?
Response: active
